Test system: Porcine atria myofibrils (atrial myosin ATPase)
Experiment: Myofibril ATPase assay, porcine atria myofibrils
Type: biochemical
Details: porcine atria myofibrils; Y75 value (75% activity relative to no compound)
Measured Property: Atrial EC25 (nM)
Numbers only here, please. The scale is nM.

The examples below pair each entry with its known result.
Compound	Output Unit	Recorded Result
Cc1c(CC(=O)N[C@@H](C)c2ccc(F)cc2F)c(=O)[nH]c2ccc(Br)nc12 [compound 357]	nM	60
Cc1nccc2[nH]c(=O)c(CC(=O)N[C@@H](CCO)c3ccc(F)cc3F)c(C)c12 (single isomer, unassigned) [compound 342]	nM	3650
Cc1nccc2[nH]c(=O)c(C(F)(F)C(=O)N[C@H](C)c3ccc(C#N)cc3F)c(C)c12 (single isomer, unassigned) [compound 3511]	nM	560

Fill in: Atrial EC25 of C[C@H](NC(=O)Cc1c(C(F)F)c2cnccc2[nH]c1=O)c1ccc(F)cc1F [compound 438] is ___
2350

Fill in: Atrial EC25 of Cc1c(CC(=O)N[C@@H](C)c2ccc(F)cc2F)c(=O)[nH]c2ccnc(OCC(C)C)c12 [compound 371] is ___
3040

Fill in: Atrial EC25 of COc1ccc([C@H](C)NC(=O)Cc2c(C)c3c(C)nccc3[nH]c2=O)cc1 (single isomer, unassigned) [compound 287] is ___
100000

Fill in: Atrial EC25 of C[C@H](NC(=O)Cc1c(C(F)(F)F)c2cnccc2[nH]c1=O)c1ccc(F)cc1F [compound 447] is ___
250

Fill in: Atrial EC25 of Cc1nccc2[nH]c(=O)c(C(F)(F)C(=O)N[C@H](CO)c3ncc(C#N)cc3F)c(C)c12 (single isomer, unassigned) [compound 3522] is ___
1100

Fill in: Atrial EC25 of Cc1c(CC(=O)N[C@@H](CO)c2ccc(F)cc2F)c(=O)[nH]c2ccc(C(F)(F)F)nc12 [compound 217] is ___
360

Fill in: Atrial EC25 of Cc1c(CC(=O)N[C@@H](C)c2ncc(F)cc2F)c(=O)[nH]c2ccc(O)nc12 (single isomer, unassigned) [compound 223] is ___
12990

Fill in: Atrial EC25 of Cc1c(CC(=O)N[C@@H](C)c2ncc(C#N)cc2F)c(=O)[nH]c2ccnc(C(F)(F)F)c12 (single isomer, unassigned) [compound 227] is ___
90

Fill in: Atrial EC25 of Cc1nccc2[nH]c(=O)c(CC(=O)N[C@H](C)c3cccc(O)c3)c(C)c12 (single isomer, unassigned) [compound 330] is ___
100000

Fill in: Atrial EC25 of C[C@H](NC(=O)Cc1cc2nc(F)ccc2[nH]c1=O)c1ccc(F)cc1F [compound 392] is ___
130

Fill in: Atrial EC25 of Cc1c(CC(=O)N[C@H](CO)c2ncc(F)cc2F)c(=O)[nH]c2ccc(C#N)nc12 [compound 259] is ___
100000

###

Test system: Porcine atria myofibrils (atrial myosin ATPase)
Assay: Myofibril ATPase assay, porcine atria myofibrils
Assay type: biochemical
Settings: porcine atria myofibrils; Y75 value (75% activity relative to no compound)
Atrial EC25 values by entry
Numbers only here, please. The scale is µM.

The examples below pair each entry with its known result.
Molecule	Measured Property	Recorded Result
Cc1nccc2[nH]c(=O)c(CC(=O)N[C@H](C)c3cccnc3)c(C)c12 (single isomer, unassigned) [compound 322]	Atrial EC25	100.00
Cc1nncc2[nH]c(=O)c(CC(=O)N[C@H](C)c3ccc(F)cc3F)cc12 [compound 499]	Atrial EC25	100
Cc1nccc2[nH]c(=O)c(CC(=O)N[C@@H](C)c3ccc(F)cc3F)c(C(F)(F)F)c12 [compound 430]	Atrial EC25	0.38
Cc1c(CC(=O)N[C@@H](CO)c2ccc(C#N)cc2F)c(=O)[nH]c2ccnc(OC3CC3)c12 [compound 204]	Atrial EC25	0.47
Cc1nccc2[nH]c(=O)c([C@H](C)C(=O)N[C@H](C)c3ccc(C#N)cc3F)c(C)c12 (single isomer, unassigned) [compound 184]	Atrial EC25	100.00
Cc1c(CC(=O)N[C@@H](C)c2ccc(F)cc2F)c(=O)[nH]c2ccnc(C#N)c12 [compound 355]	Atrial EC25	0.07
Cc1c(CC(=O)N[C@@H](C)c2ncc(C#N)cc2F)c(=O)[nH]c2ccnc(C#N)c12 (single isomer, unassigned) [compound 285]	Atrial EC25	0.28
Cc1nc(C#N)cnc1[C@@H](C)NC(=O)C(F)(F)c1c(C)c2c(C)nccc2[nH]c1=O (single isomer, unassigned) [compound 3503]	Atrial EC25	3.50
Cc1nccc2[nH]c(=O)c(C(F)(F)C(=O)N[C@H](C)c3cnc(C#N)cn3)c(C)c12 (single isomer, unassigned) [compound 3520]	Atrial EC25	2.38
COc1nccc2[nH]c(=O)c(CC(=O)N[C@H](C)c3ncc(C#N)cn3)c(C(F)(F)F)c12 (single isomer, unassigned) [compound 3007]	Atrial EC25	100.00

Fill in: Atrial EC25 of Cc1nc([C@H](C)NC(=O)Cc2c(C)c3c(C)nccc3[nH]c2=O)ncc1C#N [compound 479] is ___
100.00

Fill in: Atrial EC25 of C[C@H](NC(=O)Cc1c(C(F)(F)F)c2ncccc2[nH]c1=O)c1ccc(F)cc1F [compound 417] is ___
9.70

Fill in: Atrial EC25 of Cc1c(CC(=O)N[C@H](C)c2ccc(S(C)(=O)=O)cc2F)c(=O)[nH]c2ccnc(C#N)c12 (single isomer, unassigned) [compound 214] is ___
100.00

Fill in: Atrial EC25 of Cc1c([C@H](C)C(=O)N[C@@H](C)c2ccc(F)cc2F)c(=O)[nH]c2ccnc(OC(F)(F)F)c12 (single isomer, unassigned) [compound 348] is ___
0.34

Fill in: Atrial EC25 of Cc1nccc2[nH]c(=O)c(CC(=O)N[C@H](C)c3ncc(F)cc3F)c(C)c12 (single isomer, unassigned) [compound 378] is ___
100.00

Fill in: Atrial EC25 of Cc1cccc([C@H](CO)NC(=O)Cc2c(C)c3c(C)nccc3[nH]c2=O)c1 (single isomer, unassigned) [compound 313] is ___
100.00

Fill in: Atrial EC25 of Cc1nncc2[nH]c(=O)c(CC(=O)N[C@H](C)c3ncc(C#N)cc3F)cc12 [compound 451] is ___
100.00

Fill in: Atrial EC25 of Cc1c(CC(=O)N[C@@H]2c3c(F)cc(F)cc3OC2(C)C)c(=O)[nH]c2ccnc(C#N)c12 (single isomer, unassigned) [compound 188] is ___
2.43

Fill in: Atrial EC25 of Cc1nc(C#N)cnc1[C@H](C)NC(=O)Cc1c(C)c2nc(C(F)(F)F)ccc2[nH]c1=O (single isomer, unassigned) [compound 139] is ___
0.08

Fill in: Atrial EC25 of Cc1nncc2[nH]c(=O)c(CC(=O)N[C@@H](C)c3ncc(C#N)cc3F)cc12 [compound 452] is ___
63.47
